Source: ChEMBL document CHEMBL3867488

# assayedSystem: Nuclear receptor subfamily 1 group I member 2 (Homo sapiens, UniProt O75469)
# Sequence (O75469 whole entry): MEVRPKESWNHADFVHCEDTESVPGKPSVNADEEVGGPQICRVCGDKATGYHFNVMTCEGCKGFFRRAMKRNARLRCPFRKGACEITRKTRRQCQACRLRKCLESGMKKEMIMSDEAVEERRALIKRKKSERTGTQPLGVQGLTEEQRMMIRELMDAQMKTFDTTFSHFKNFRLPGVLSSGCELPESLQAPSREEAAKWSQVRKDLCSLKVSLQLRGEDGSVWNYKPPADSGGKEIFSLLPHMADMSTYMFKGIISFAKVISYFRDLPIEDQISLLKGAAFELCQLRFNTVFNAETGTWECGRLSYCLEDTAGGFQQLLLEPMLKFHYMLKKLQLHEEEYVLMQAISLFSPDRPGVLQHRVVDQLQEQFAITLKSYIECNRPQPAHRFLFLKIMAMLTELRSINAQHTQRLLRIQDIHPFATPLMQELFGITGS
# experimentNotes: Agonist activity at human PXR expressed in human HepG2 cells assessed as induction of CYP3A4 measured after 24 hrs by AlamarBlue dye-based luciferase reporter gene assay
pEC50: −log10 of the molar value.
measurementKind: pEC50

(1) CC(C)(O)c1cn(-c2ccc(-c3cc(F)c(CO)c(S(C)(=O)=O)c3)cc2F)c(C(C)(C)c2c(Cl)cccc2Cl)n1
(2) CC(C)(O)c1cn(-c2ccc(-c3cc(F)c(CO)c(S(C)(=O)=O)c3)cc2)c(C(C)(C)c2cccc(F)c2Cl)n1
Ask: When the recorded pEC50 values are compared, which is smaller: that of 1 or that of 2 ? // caller expects the label of the chosen entry
Reply: 2
(2: 5.52, 1: 6.00)
